System: Erythroid Colonies, CFU-E
experiment description: CFU-E assay (late erythroid precursors), human hematopoietic cell toxicity
Format: cell-based
run parameters: BM (1 experiment)
Protocol: This procedure is a modification of procedures initially described by Diainiak, et al., British Journal of Haematology, 69, 229-304 (1988), or as described by Sommadossi, et al., Agents and Chemotherapy, 31-(3), 452-454 (1987). […] MN were cultured at a concentration of 3 x 10^5 cells/ml. […] BFU-E colonies were counted on Day 14. Aggregates of 50 or more cells were counted as a colony. […]
metric name: IC50 (µM)
Supply the numeric figure in µM, leaving out any unit text.

## Input Requested read-out: IC50. Entry: `Cc1cn([C@H]2C[C@H](O)[C@](CO)(N=[N+]=[N-])O2)c(=O)[nH]c1=O`
## Output 27

====

Tested on: Granulocyte-Macrophage Colonies (CFU-GM)
experiment description: CFU-GM assay (myeloid precursors), human hematopoietic cell toxicity
Format: cell-based
run parameters: bone marrow, experiment 1, listed as 2, read-out: IC50 BM 1
metric name: IC50 (nM)
Supply the numeric figure in nM, leaving out any unit text.

## Input Requested read-out: IC50. Entry: Cc1cn([C@H]2C[C@H](O)[C@](CO)(N=[N+]=[N-])O2)c(=O)[nH]c1=O [4'-azidothymidine]
## Output 2010

====

Test system: Granulocyte-Macrophage Colonies (CFU-GM)
experiment description: CFU-GM assay (myeloid precursors), human hematopoietic cell toxicity
Type: cell-based
run parameters: peripheral blood mononuclear cells, five separate experiments, listed as 2, read-out: IC50 PBM Mean ±SE
Method: This procedure is a modification of procedures initially described by Diainiak, et al., British Journal of Haematology, 69, 229-304 (1988), or as described by Sommadossi, et al., Agents and Chemotherapy, 31-(3), 452-454 (1987). […] All tests were performed in triplicate. The 50% inhibitory concentrations (ICso) for all types of colonies were determined using an RS 1 program on an IBM-PC.
metric name: IC50

## Input Requested read-out: IC50. Entry: Cc1cn([C@H]2C[C@H](O)[C@](CO)(N=[N+]=[N-])O2)c(=O)[nH]c1=O [4'-azidothymidine]
## Output 4.83 µM

// provenance: patent EP0371366A1
